- STUDY SYSTEM: EPHB1 (UniProt P54762)
- Sequence (P54762 whole entry, looked up): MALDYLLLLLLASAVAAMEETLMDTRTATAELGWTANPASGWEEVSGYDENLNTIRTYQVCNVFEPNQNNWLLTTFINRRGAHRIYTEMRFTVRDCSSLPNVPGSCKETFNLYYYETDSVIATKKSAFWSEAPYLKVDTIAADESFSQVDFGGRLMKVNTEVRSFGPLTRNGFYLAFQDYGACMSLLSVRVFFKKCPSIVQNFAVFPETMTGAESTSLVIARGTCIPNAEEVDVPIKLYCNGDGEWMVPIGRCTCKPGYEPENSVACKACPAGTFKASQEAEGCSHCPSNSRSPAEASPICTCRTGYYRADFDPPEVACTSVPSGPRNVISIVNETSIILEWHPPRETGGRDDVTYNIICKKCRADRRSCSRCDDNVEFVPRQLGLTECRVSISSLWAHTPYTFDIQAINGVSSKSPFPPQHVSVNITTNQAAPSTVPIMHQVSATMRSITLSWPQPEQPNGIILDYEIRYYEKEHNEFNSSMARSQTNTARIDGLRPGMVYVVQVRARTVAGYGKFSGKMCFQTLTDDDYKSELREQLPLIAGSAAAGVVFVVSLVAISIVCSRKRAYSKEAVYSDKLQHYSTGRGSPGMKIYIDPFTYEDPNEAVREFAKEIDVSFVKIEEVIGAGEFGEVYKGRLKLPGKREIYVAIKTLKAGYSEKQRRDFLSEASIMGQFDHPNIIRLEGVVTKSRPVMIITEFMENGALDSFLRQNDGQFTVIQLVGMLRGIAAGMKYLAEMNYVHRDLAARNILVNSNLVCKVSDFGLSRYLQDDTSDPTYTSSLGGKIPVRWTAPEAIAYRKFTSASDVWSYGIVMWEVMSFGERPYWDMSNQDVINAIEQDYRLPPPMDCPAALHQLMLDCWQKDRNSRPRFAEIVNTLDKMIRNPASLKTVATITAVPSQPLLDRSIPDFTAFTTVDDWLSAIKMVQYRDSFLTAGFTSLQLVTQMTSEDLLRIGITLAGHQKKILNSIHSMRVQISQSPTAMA
- PROTOCOL NOTES: phosphorylation enrichment, bacterial display (enrichment ratio); higher = better substrate or ligand; peptides without Tyr show the background;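 also: 11-residue human phosphosite peptides and single-mutation variants displayed on the E. coli surface, counted by deep sequencing, each peptide's frequency after selection divided by its frequency in the unselected input library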;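 also: frequency after pTyr selection over input frequency; kinase dosed for 20-30% of maximal phosphorylation in three min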
Please note: 1 (yes) applies when phosphorylation enrichment is 0.5 or greater, and 0 (no) applies otherwise.

Solved cases below.
NGLVACKDGKL [PMM2_Y76_Y76C] :: 0 (no)
SIVEDYRPPFF [ACVRL1_Y421_G416S_YF] :: 1 (yes)
EHIEFYELDKK [PMM2_Y145_R141H] :: 0 (no)
RQQQDYWLIDV [ANPEP_Y600] :: 1 (yes)
ISIFFYAKGQP [MPZ_Y82_H81Y_YF] :: 1 (yes)

Req: hey, is phosphorylation enrichment for this one >= 0.5? AVLSLYASGRN [ACTA1_Y145_T150N]
Resp: 1 (yes)

Req: Please indicate if the recorded phosphorylation enrichment for EKKKKYMLPLD [DNM2_Y563_E560K] meets or exceeds 0.5.
Resp: 1 (yes)

Req: Kindly determine if phosphorylation enrichment recorded for VASSLYDIFAR [GLB1_Y294_L297F] is above or exactly 0.5.
Resp: 1 (yes)

Req: Is the recorded value of phosphorylation enrichment equal to or greater than 0.5 for this sequence? SFCFRYRCAAR [SUMF1_Y344_YF]
Resp: 0 (no)

Req: Please tell me: is the sequence QRVLLYVRRET [GRHL3_Y518] at or over 0.5 in terms of phosphorylation enrichment?
Resp: 0 (no)

Req: Given the entry CCNHPYRINGA [CHD7_Y1256_L1257R] , answer whether its phosphorylation enrichment meets or surpasses 0.5.
Resp: 0 (no)

----------
- Tested on: c-Src
- PROTOCOL NOTES: phosphorylation enrichment, bacterial display (enrichment ratio); higher = better substrate or ligand; peptides without Tyr show the background
As shown below, each of these sequences has a reported phosphorylation enrichment value.
Returns: the value as a bare number; no unit string appended.

Examples from the recorded data:
RTMPDYTSFNT [EPHB2_Y912_I909M] :: 1.31
GHNDVYISKHV [GRIN2A_Y1423_E1426K] :: 0.352
LGPSDYFGEIA [PRKAR1A_Y323] :: 0.68
ISTAGYSIPEL [EDAR_Y406] :: 0.457
KDHPDYKYQAR [SOX10_Y171_P175A] :: 0.415

Req: State its phosphorylation enrichment: IIQRAYRRHLL [SCN1A_Y1926]
Resp: 0.584

Req: Indicate its recorded phosphorylation enrichment; the sequence in question is MKVPLYETPAG [PGM5_Y358_V357L]
Resp: 1.81

Req: Indicate its recorded phosphorylation enrichment; the sequence in question is ATARPYRPYII [LRP5_Y1528]
Resp: 0.581

Req: Answer with reported phosphorylation enrichment of YSIDYYRVGGH [NTRK2_Y707_T704I]
Resp: 2.15

Req: Give phosphorylation enrichment for PTYENYANSTQ [SLC12A3_Y70_H69N]
Resp: 5.43

Req: Assign phosphorylation enrichment to the following record: SSFSRYIMMPN [LEF1_Y114_G113R_YF]
Resp: 0.485

Req: Query phosphorylation enrichment for AKAEICEMRPL [COX10_Y97_Y97C]
Resp: 0.533

Req: In one line, give reported phosphorylation enrichment of the entry MFVKSYTIHFS [F5_Y2153_YF] .
Resp: 0.48

Req: Give reported phosphorylation enrichment value for VNFQPYRKHKF [TEX37_Y28_D24N_YF]
Resp: 0.431

Req: Give phosphorylation enrichment for the following sequence: YSTDYYRVGGH [NTRK2_Y707]
Resp: 2.22
